Value source: ChEMBL document CHEMBL1201862

Tested on: MDA-MB-231
Test method notes: NCI tumour cell line growth inhibition, 48 h
The source made the active and inactive calls. Cut-off read from the data, not from the text of the source: active = GI50 up to about 1.1 µM and inactive = higher.
Reported metric: GI50

Given the entry "Cc1ccc(S(=O)(=O)OI(O)CC(F)(F)F)cc1" , report its measured GI50.
> 100 µM (inactive)

What value of GI50 has been reported for the following compound? "Nc1c2c(nc3ccccc13)CCCc1ccccc1-2"
5.38 µM (inactive)

Report GI50 for "O=C(O)CCNCC(=O)O" please.
> 100 µM (inactive)

Quick one: GI50 for COC(=O)[C@]12CCC(C)(C)C[C@H]1C1=CC[C@@H]3[C@@]4(C)CC[C@H](OC5OC(CO)C(O)C(O)C5OC5OC(CO)C(O)C(O)C5O)C(C)(C)[C@@H]4CC[C@@]3(C)[C@]1(C)CC2 (some centres not stated) ?
2.65 µM (inactive)

// returns reported GI50 for input COc1ccc(C2NC(=O)Nc3c2c(=O)oc2c3ccc3ccccc32)cc1 (configuration not stated)
54 µM (inactive)

Consider the compound shown here: O=C(O)c1cc2c(cc1CC(Cc1ccc3c(c1)CCCC3)C(=O)O)CCCC2 (configuration not stated) What is its recorded GI50?
> 100 µM (inactive)

What value of GI50 has been recorded for this entry: "c1ccc(C(CCN2CC3CCC(CC3)C2)c2ccccc2)cc1"
18.9 µM (inactive)

###

Could you please report measured GI50 for the items listed next?
Test system: OVCAR-3
Test method notes: NCI tumour cell line growth inhibition, 48 h
Activity calls are given as the source filed them. No stated cut-off is given here; in the data, active = GI50 up to about 1.1 µM and inactive = higher.

I am curious: what GI50 value has been reported for O=C(O)c1cc2c(cc1CC(Cc1ccc3c(c1)CCCC3)C(=O)O)CCCC2 (stereo not drawn) ?
> 100 µM (inactive)

Return reported GI50; argument: C/C(=N\N)C(CN(C)C)C(c1ccccc1)c1c(O)c2ccccc2oc1=O (stereo not drawn)
> 100 µM (inactive)

Query: GI50; subject: "CC1=N/C(=C\c2ccc(/C=C3/N=C(C)OC3=O)cc2)C(=O)O1"
> 100 µM (inactive)

# input compound: "CCOC(=O)C1(F)S(=O)(=O)OCCOS1(=O)=O" ; wanted: its GI50
> 100 µM (inactive)

What value of GI50 has been recorded for this entry: "NCCCN1CCN(c2ccccc2)CC1"
10.7 µM (inactive)

What GI50 value was documented for this compound, "Clc1ccccc1NN(Cc1ccccn1)c1ccccc1Cl" ?
18.1 µM (inactive)

Given the compound "O=C(O)CNc1ccc2c(c1)Cc1cc(Br)ccc1-2" , what is its reported GI50?
28.5 µM (inactive)

Name the reported GI50 value associated with the compound "O=C(/C=C/c1ccccc1)CCN1CCN(CCC(=O)/C=C/c2ccccc2)CC1"
16.8 µM (inactive)

Value lookup for GI50; key = "O=C(O)C1=NN=C(C(=O)O)NN1"
> 100 µM (inactive)

# GI50 lookup, item COc1ccc2c(c1)CC1c3c(ccc(OC)c3O)CC2N1C (stereo not drawn)
29.2 µM (inactive)

What does the data say about its GI50? Entry: "CC(=O)Nc1ccc(C(=O)N[C@@H]2C(=O)N3[C@@H]2SC(C)(C)[C@@H]3C(=O)O)cn1"
> 100 µM (inactive)

What value of GI50 has been reported for the following compound? "Nc1ncc(Cc2nn3c(COc4ccc(Cl)cc4)nnc3s2)s1"
> 100 µM (inactive)

Can you look up the measured GI50 of "CN(C)CCNC(=O)c1cccc(C(=O)Nc2ccccc2)c1[N+](=O)[O-]" for me?
> 100 µM (inactive)

###

System: KM12
Test method notes: NCI tumour cell line growth inhibition, 48 h
The source made the active and inactive calls. Rule as the data show it: active = GI50 up to about 1.1 µM and inactive = higher.
Thanks in advance; please answer with one of these: 1 (yes) = active, 0 (no) = inactive

For this molecule, state the assay outcome: Nc1ncnc2c1ncn2C1OC(CO)C(O)C1NS(=O)(=O)c1ccccc1 (stereo unspecified)
0 (no)

What did this assay record as the result for CC(C)CCC[C@@H](C)C1CCC2[C@@H]3CCC4CC(CCC=C(c5cc(Cl)c(OC(=O)c6ccccc6)c(C(=O)O)c5)c5cc(Cl)c(OC(=O)c6ccccc6)c(C(=O)O)c5)CC[C@]4(C)C3CC[C@@]21C (stereo partly specified) ?
0 (no)

Would you mind telling me which call this test gave "CCCCC(=O)Nc1ccc2cc(C(=O)OC)c(Cl)nc2n1" ?
0 (no)

Which outcome did this test record for the molecule "C/C(=N\NC(=S)N1CCCCCCCCCCCC1)c1ccccn1" ?
1 (yes)

Hi team, can someone confirm the assay call for COC(=O)C(Cc1c(C2Nc3ccccc3C2CC(NC(C)=O)C(=O)OC)[nH]c2ccccc12)NC(C)=O (stereo unspecified) ?
0 (no)

Dear colleague, could you share the recorded outcome for "Cc1cc([N+](=O)[O-])ccc1Sc1c2ccccc2nc2ccccc12" when you have a moment?
0 (no)

// param item: "COc1cc(/C=C2/C[C@H]3[C@@H]4CC=C5C[C@@H](OC(C)=O)CC[C@]5(C)[C@H]4CC[C@]3(C)NC2=O)cc(OC)c1OC" ; yields the recorded call
0 (no)

Could you please tell me the result logged for "COc1ccc(/C(=C\c2cc(OC)c(OC)c(OC)c2)C(=O)O)cc1" in this assay?
0 (no)

Short answer needed: outcome of this test for C/C(=N\N)C(CN(C)C)C(c1ccccc1)c1c(O)c2ccccc2oc1=O (stereo unspecified) ?
0 (no)

Look up the recorded call for "CO[C@H]1/C=C/O[C@@]2(C)Oc3c(C)c(O)c4c(O)c(c(/C=N/N5CCN(C)CC5)c(O)c4c3C2=O)NC(=O)/C(C)=C\C=C\[C@H](C)[C@H](O)[C@@H](C)[C@@H](O)[C@@H](C)[C@H](OC(C)=O)[C@@H]1C" in this test.
0 (no)

Tell me the assay call for COC(=O)[C@]1(C)CCC[C@@]2(C)C1CC[C@@]13C=C(C(C)C)[C@@H](CC1=O)CC23 (stereo partly specified) please.
0 (no)

###

Tested on: SF-268
Test method notes: NCI tumour cell line growth inhibition, 48 h
The source made the active and inactive calls. No stated cut-off is given here; in the data, active = GI50 up to about 1.1 µM and inactive = higher.
Entry note: the call must match one of Yes (active), No (inactive)

Just curious, what result did "Cc1ccc(S(=O)(=O)OI(O)CC(F)(F)F)cc1" get here?
No

Recorded test call requested for "COc1cc(/C=C2/C[C@H]3[C@@H]4CC=C5C[C@@H](OC(C)=O)CC[C@]5(C)[C@H]4CC[C@]3(C)NC2=O)cc(OC)c1OC"
No

Could you kindly confirm the outcome this assay logged for "CCOC(=O)c1sc2nc(SC)nc3c2c1NCN3c1ccccc1Cl" ?
No

I'd appreciate the recorded outcome for "O=[N+]([O-])c1ccc(/C(=N/c2ccccc2)SS/C(=N\c2ccccc2)c2ccc([N+](=O)[O-])o2)o1" from this test.
No

Test call, this molecule: "CSc1cc(Cl)c(C)cc1S(=O)(=O)NC(=O)NNc1ccc(F)cc1"
No

Per the assay record, what outcome was assigned to CC1(c2cccc3c2C2(O)C=CC4(CCC32)OCCO4)OCCO1 (stereo unspecified) ?
No

For N=C1OC(c2c[nH]c3ccc(OCc4ccccc4)cc23)C(O)=C1O (stereo unspecified) , which call appears in the assay record?
No

Fill in: this test's call for CC(=O)OC1COC(n2c(N)c(C#N)c(-c3ccccc3)c(C#N)c2=S)C(OC(C)=O)C1OC(C)=O (stereo unspecified) is ___
No

For C[C@@H](CC(=O)O)OC1OC(COC(=O)C(C)(C)C)C(OC(=O)C(C)(C)C)C(OC(=O)C(C)(C)C)C1OC(=O)C(C)(C)C (stereo partly specified) , which call appears in the assay record?
No

Please state the recorded outcome for this molecule: "CN(C)/C=C/c1c2c(nc3ccccc13)C(=O)c1cccnc1C2=O"
Yes

What did this assay record as the result for "C=CCNC(=S)N/N=C1\C(=O)N(CN2CCOCC2)c2ccc([N+](=O)[O-])cc21" ?
No

###

Tested on: NCI/ADR-RES
Test method notes: NCI tumour cell line growth inhibition, 48 h
Active and inactive are the calls of the source. Cut-off read from the data, not from the text of the source: active = GI50 up to about 1.1 µM and inactive = higher. Non-standard residues stand in square brackets, D forms with d. Residues, ends and D or L forms follow the SMILES beside them. ξ: configuration not given here. *: point of attachment. dThr(3ξ) = CC(O)[C@@H](N)C(=O)O; dNMeL = CN[C@H](CC(C)C)C(=O)O; OBn = c1ccc(CO*)cc1; ξLac = CC(O)C(=O)O
Reported metric: GI50

If you can, please state the reported GI50 value of CC(=O)OC(C)[C@@H](NC(=O)[C@@H](CC(C)C)N(C)C(=O)[C@@H]1CCCN1C(=O)C(C)O)C(=O)OCc1ccccc1 (stereo partly drawn) (H-[ξLac]P[dNMeL][dThr(3ξ)](Ac)-OBn) .
> 100 µM (inactive)

// returns reported GI50 for input "CCCCC(=O)Nc1ccc2cc(C(=O)OC)c(Cl)nc2n1"
> 100 µM (inactive)

What GI50 value was documented for this compound, "Clc1ncnc2c1nc(C#Cc1ccccc1)n2Cc1ccccc1" ?
60 µM (inactive)
